Experiment: Enhancement in bioavailability of drugs by the Cuminum cyminum active molecule / fraction
Conditions: drug given with Active molecule (3′,5-dihydroxy flavone-7-O-β-D-galacturonide-4′-O-β-D-glucopyranoside)
Could you please report measured % Enhancement in bioavailability for the items listed next?
Write down the numeric answer in % and omit the unit.

The compound CC(C)NCC(O)COc1cccc2ccccc12 (stereo not shown) [Propranolol] showed % Enhancement in bioavailability equal to 85

Entry under test: O=c1[nH]cc(F)c(=O)[nH]1 [5-Fluorouracil] . Its % Enhancement in bioavailability was 110

% Enhancement in bioavailability reported for this compound O=C(CCCN1CCC(O)(c2ccc(Cl)cc2)CC1)c1ccc(F)cc1 [Haloperidol] : 72

Query COc1cccc2c1C(=O)c1c(O)c3c(c(O)c1C2=O)C[C@@](O)(C(=O)CO)C[C@@H]3O[C@H]1C[C@H](N)[C@H](O)[C@H](C)O1 [Doxorubicin] yields % Enhancement in bioavailability of 78

Sure, the documented % Enhancement in bioavailability for CCc1cc(C(N)=S)ccn1 [Ethionamide] is 120

Entry CN/C(=N/CCSCc1nc[nH]c1C)NC#N [Cimetidine] — recorded % Enhancement in bioavailability = 76

Form field % Enhancement in bioavailability, entry Cc1nnc2n1-c1ccc(Cl)cc1C(c1ccccc1)=NC2 [Alprazolam] : 70
